Test system: 616215-338-R-J1-PDC complex spheroid viability;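 further: spheroids exposed to compounds for one week before readout; percent viability relative to DMSO vehicle wells taken as 100%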
Method notes: Anticancer human tumor 616215-338-R-J1-PDC patient-derived colon adenocarcinoma cell line growth inhibition [POLQ]
Settings: second compound 1 µM; first compound 0.0316 µM; active compounds read low
Measure name: viability, T/C (%)
Numbers only, in %.

Check out these entries, answers already filled in.
O=C(Nc1ccc(O)c(NS(=O)(=O)c2ccc(F)cc2)c1)c1ccc(-c2ccccc2)cc1 + COC1C(OC(N)=O)C(O)C(Oc2ccc3c(O)c(NC(=O)c4ccc(O)c(CC=C(C)C)c4)c(=O)oc3c2C)OC1(C)C; 105
C=CC(=O)N1CCN(c2nc(=O)n(-c3c(C)ccnc3C(C)C)c3nc(-c4c(O)cccc4F)c(F)cc23)C(C)C1 (stereo not given) + COC1C(OC(N)=O)C(O)C(Oc2ccc3c(O)c(NC(=O)c4ccc(O)c(CC=C(C)C)c4)c(=O)oc3c2C)OC1(C)C; 96.9
CC1COCCN1c1cc(-c2ccnn2C)c2ccnc(-c3ccn[nH]3)c2n1 (stereo not given) + Nc1ccc(C#CCN(C(=O)Cc2ncc(C(F)(F)F)cc2C(F)(F)F)c2ccc(F)cc2)nn1; 101
O=C(c1cc(Cc2n[nH]c(=O)c3ccccc23)ccc1F)N1CCN(C(=O)C2CC2)CC1 + COC1C(OC(N)=O)C(O)C(Oc2ccc3c(O)c(NC(=O)c4ccc(O)c(CC=C(C)C)c4)c(=O)oc3c2C)OC1(C)C; 107
CNCc1ccc(-c2[nH]c3cc(F)cc4c3c2CCNC4=O)cc1 + Cc1cccc(N(C)C(=O)C2C(O)CCN2c2nc(C)cc(C(F)(F)F)c2C#N)c1; 107

Would you be so kind as to report viability, T/C for each listed record?
1. C=CCn1c(=O)c2cnc(Nc3ccc(N4CCN(C)CC4)cc3)nc2n1-c1cccc(C(C)(C)O)n1 + Nc1ccc(C#CCN(C(=O)Cc2ncc(C(F)(F)F)cc2C(F)(F)F)c2ccc(F)cc2)nn1
2. CCc1cc2c(N3CCc4c(cc(Cn5ccnc5)cc4-c4cn(C)nc4C(F)(F)F)C3=O)ccnc2c(OC)n1 + Cc1cccc(N(C)C(=O)C2C(O)CCN2c2nc(C)cc(C(F)(F)F)c2C#N)c1
3. CNCc1ccc(-c2[nH]c3cc(F)cc4c3c2CCNC4=O)cc1 + COC1C(OC(N)=O)C(O)C(Oc2ccc3c(O)c(NC(=O)c4ccc(O)c(CC=C(C)C)c4)c(=O)oc3c2C)OC1(C)C
4. C#Cc1c(F)ccc2cc(O)cc(-c3ncc4c(N5CC6CCC(C5)N6)nc(OCC56CCCN5CC(F)C6)nc4c3F)c12 (stereo not given) + Cc1cccc(N(C)C(=O)C2C(O)CCN2c2nc(C)cc(C(F)(F)F)c2C#N)c1

1: 100; 2: 113; 3: 105; 4: 103

Observed viability, T/C on 616215-338-R-J1-PDC complex spheroid viability for Nc1ccn(C2OC(CO)C(O)C2(F)F)c(=O)n1 (stereo not given) + COC1C(OC(N)=O)C(O)C(Oc2ccc3c(O)c(NC(=O)c4ccc(O)c(CC=C(C)C)c4)c(=O)oc3c2C)OC1(C)C , please. 60.1
